# assay-target: human TRPA1 (Homo sapiens (Human), UniProt O75762)
# Sequence (O75762 whole entry): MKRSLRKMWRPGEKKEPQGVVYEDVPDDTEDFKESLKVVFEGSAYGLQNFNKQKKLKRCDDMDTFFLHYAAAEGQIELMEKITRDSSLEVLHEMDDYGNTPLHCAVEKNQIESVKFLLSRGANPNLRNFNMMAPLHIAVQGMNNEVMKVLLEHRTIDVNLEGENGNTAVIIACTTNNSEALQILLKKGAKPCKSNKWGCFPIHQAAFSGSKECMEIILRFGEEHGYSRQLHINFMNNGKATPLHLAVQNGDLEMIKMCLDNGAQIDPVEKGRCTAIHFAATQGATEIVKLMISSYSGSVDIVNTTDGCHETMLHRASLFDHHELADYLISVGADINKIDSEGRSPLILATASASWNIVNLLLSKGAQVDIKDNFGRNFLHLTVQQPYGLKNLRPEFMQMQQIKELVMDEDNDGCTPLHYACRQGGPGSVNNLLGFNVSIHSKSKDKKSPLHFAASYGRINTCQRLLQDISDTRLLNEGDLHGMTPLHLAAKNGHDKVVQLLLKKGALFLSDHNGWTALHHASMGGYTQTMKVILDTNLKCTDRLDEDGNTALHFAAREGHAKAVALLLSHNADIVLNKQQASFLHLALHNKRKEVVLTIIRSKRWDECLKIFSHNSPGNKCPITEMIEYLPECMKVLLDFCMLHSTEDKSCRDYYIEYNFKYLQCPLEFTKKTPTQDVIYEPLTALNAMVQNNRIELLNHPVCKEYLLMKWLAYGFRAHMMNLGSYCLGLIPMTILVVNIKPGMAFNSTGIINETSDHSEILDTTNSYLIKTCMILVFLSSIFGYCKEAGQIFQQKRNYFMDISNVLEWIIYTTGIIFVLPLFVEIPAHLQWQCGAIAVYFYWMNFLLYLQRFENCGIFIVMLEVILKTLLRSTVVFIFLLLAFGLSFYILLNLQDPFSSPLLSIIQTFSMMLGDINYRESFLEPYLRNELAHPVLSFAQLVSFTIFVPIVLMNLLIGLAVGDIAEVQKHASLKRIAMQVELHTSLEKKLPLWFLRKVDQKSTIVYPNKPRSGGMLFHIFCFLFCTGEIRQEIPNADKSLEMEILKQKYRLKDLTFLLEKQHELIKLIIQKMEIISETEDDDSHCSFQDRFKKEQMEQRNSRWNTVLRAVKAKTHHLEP
# test-method-notes: Measurement of TRPA1 antagonist activity (intracellular calcium increase induced by allylisothiocyanate in 293T cells transfected with human TRPA1)
# condition-set: 293T cells expressing human TRPA1, allylisothiocyanate stimulation, FLIPR Calcium4 fluorescence; read-out: hTRPA1 IC50
Exercise: for every item that follows, state its recorded pIC50.
Answers are plain numbers, as −log10 of the molar value.

I have 2 molecules here; please give me pIC50 for each one.
1. Cn1c(=O)c(CNC(=O)[C@@H]2CCCN2S(=O)(=O)c2cc3cc(F)ccc3o2)cn(-c2ccc(C(F)(F)F)cc2)c1=O [Example 5]
2. CC(C)n1cc(-c2ccc(C(F)(F)F)cn2)cc(CNC(=O)[C@@H]2CCCN2S(=O)(=O)c2cc3cc(F)ccc3o2)c1=O [Example 43]

7.68
7.64

So for CC(C)n1c(=O)c(CNC(=O)[C@@H]2CCCN2S(=O)(=O)c2cc3ccccc3o2)cn(-c2ccc(F)cc2)c1=O [Example 38] , the logged pIC50 turned out to be 6.62

These entries and their values trace back to patent US10584116B2.
